- system name: Full length human recombinant HDAC6 protein (Homo sapiens)
- Sequence (Q9UBN7 whole entry): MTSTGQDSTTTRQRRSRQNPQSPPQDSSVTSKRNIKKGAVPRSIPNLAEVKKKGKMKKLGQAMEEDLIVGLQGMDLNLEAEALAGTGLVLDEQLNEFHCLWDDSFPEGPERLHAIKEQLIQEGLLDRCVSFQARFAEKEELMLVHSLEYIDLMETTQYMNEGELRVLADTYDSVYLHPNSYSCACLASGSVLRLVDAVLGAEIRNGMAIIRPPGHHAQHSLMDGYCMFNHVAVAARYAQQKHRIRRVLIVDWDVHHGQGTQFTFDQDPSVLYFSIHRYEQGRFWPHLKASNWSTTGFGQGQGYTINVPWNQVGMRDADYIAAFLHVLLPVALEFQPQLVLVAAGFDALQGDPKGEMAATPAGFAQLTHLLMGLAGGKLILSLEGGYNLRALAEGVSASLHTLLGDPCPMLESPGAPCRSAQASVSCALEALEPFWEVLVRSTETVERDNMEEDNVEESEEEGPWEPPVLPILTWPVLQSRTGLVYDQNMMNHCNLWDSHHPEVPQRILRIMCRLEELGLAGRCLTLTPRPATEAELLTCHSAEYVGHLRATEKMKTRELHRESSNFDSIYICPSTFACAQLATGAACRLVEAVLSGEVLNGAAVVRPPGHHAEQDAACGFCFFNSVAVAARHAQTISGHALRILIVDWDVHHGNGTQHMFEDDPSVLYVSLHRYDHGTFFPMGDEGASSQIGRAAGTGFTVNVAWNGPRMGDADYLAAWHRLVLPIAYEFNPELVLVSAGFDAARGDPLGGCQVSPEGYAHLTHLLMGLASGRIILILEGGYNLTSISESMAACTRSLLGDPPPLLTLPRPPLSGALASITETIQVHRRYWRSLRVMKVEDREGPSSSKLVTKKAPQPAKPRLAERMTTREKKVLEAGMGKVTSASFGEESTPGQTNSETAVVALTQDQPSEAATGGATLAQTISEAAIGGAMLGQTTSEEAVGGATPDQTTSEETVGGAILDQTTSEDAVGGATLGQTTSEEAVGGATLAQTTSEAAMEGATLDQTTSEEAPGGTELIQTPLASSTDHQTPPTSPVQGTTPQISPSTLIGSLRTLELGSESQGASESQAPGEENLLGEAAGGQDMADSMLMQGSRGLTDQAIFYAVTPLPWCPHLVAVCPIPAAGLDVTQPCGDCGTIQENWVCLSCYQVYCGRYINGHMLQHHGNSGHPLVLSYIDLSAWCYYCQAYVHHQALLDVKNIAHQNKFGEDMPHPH
- method description: In vitro histone deacetylase assay: enzymatic HDAC6 electrophoretic mobility shift assay
- setup conditions: peptide substrate RHKK(Ac)-NH2 2 μM, enzyme 1 nM, 25° C., 12 concentrations; read-out: HDAC6 activity range (IC50)
pIC50: −log10 of the molar value.
measured quantity: pIC50

Recorded pIC50, per entry:
CC(C)CN1CC[C@]2(Cc3ccc(C(=O)NO)cc3C2)C1=O ... 7.30 to 8.00
O=C(NO)c1ccc2c(c1)C[C@@]1(CCN(Cc3ccccc3)C1)C2 ... 7.30 to 8.00
O=C(NO)c1ccc2c(c1)C[C@@]1(CCCN(Cc3ccccc3)C1=O)C2 ... ≥ 8.00
O=C(NO)c1ccc2c(c1)C[C@@]1(CCN(c3ccccn3)C1=O)C2 ... 7.30 to 8.00
O=C(NO)c1ccc2c(c1)C[C@@]1(CCN(c3ccc(F)cc3)C1=O)C2 ... 7.30 to 8.00

Request - read-out pIC50 | tested on Full length human recombinant HDAC6 protein (Homo sapiens) | molecule "CN1CC[C@@]2(Cc3ccc(C(=O)NO)cc3C2)C1=O"
7.30 to 8.00
